I'd appreciate it if you could supply Km values for the items below.
Substrate: NC(=O)N[C@@H](O)C(=O)O
Test: purified protein
Type: biochemical, Escherichia coli
Details: 3 mM NAD+ (saturating), 30 °C, value in parentheses is standard error, His-tag kept

[[record]]
protein = "(S)-ureidoglycolate dehydrogenase (AllD) (Escherichia coli K-12; D141A) (protein, full length, modified pET28b with N-terminal His-tag and TEV site, expressed in E. coli BL21(DE3); tag cut for crystals, kept on mutant enzymes for kinetics; homodimer) MKISRETLHQLIENKLCQAGLKREHAATVAEVLVYADARGIHSHGAVRVEYYAERISKGGTNREPEFRLEETGPCSAILHADNAAGQVAAKMGMEHAIKTAQQNGVAVVGISRMGHSGAISYFVQQAARAGFIGISMCQSAPMVVPFGGAEIYYGTNPLAFAAPGEGDEILTFDMATTVQAWGKVLDARSRNMSIPDTWAVDKNGVPTTDPFAVHALLPAAGPKGYGLMMMIDVLSGVLLGLPFGRQVSSMYDDLHAGRNLGQLHIVINPNFFSSSELFRQHLSQTMRELNAITPAPGFNQVYYPGQDQDIKQRKAAVEGIEIVDDIYQYLISDALYNTSYETKNPFAQ"
readout_value = "5.27 (0.46) mM"


Let's switch to this protein now.
Reported Km ( (S)-ureidoglycolate dehydrogenase (AllD) (Escherichia coli K-12; R259A) (protein, full length, modified pET28b with N-terminal His-tag and TEV site, expressed in E. coli BL21(DE3); tag cut for crystals, kept on mutant enzymes for kinetics; homodimer) MKISRETLHQLIENKLCQAGLKREHAATVAEVLVYADARGIHSHGAVRVEYYAERISKGGTNREPEFRLEETGPCSAILHADNAAGQVAAKMGMEHAIKTAQQNGVAVVGISRMGHSGAISYFVQQAARAGFIGISMCQSDPMVVPFGGAEIYYGTNPLAFAAPGEGDEILTFDMATTVQAWGKVLDARSRNMSIPDTWAVDKNGVPTTDPFAVHALLPAAGPKGYGLMMMIDVLSGVLLGLPFGRQVSSMYDDLHAGANLGQLHIVINPNFFSSSELFRQHLSQTMRELNAITPAPGFNQVYYPGQDQDIKQRKAAVEGIEIVDDIYQYLISDALYNTSYETKNPFAQ ) = 11.47 (1.25) mM
